Target: human CB2 receptors (Homo sapiens (Human), UniProt P34972)
Sequence (P34972 whole entry): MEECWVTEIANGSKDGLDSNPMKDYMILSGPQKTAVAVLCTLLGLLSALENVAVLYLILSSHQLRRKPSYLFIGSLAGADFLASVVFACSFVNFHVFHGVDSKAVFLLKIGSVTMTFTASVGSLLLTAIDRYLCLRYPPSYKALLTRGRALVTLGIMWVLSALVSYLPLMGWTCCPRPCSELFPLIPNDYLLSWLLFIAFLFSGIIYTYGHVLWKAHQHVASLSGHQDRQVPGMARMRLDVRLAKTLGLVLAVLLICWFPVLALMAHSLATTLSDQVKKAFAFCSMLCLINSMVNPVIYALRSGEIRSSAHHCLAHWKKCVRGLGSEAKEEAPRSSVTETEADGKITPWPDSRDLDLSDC
Assay: cAMP assay, CHO cells expressing human CB2 receptors
Type: cell-based
Settings: CHO cells expressing human CB2, cAMP; read-out: human CB2 EC50
OBSERVATION TYPE: pEC50
Please note pEC50 is a logarithmic value: minus log10 of concentration in mol/L. Answer with that number alone.

Known pEC50 results, listed for orientation:
>>> readout_number("COc1ccc(C(=O)NC(C)(C)c2nccs2)nc1-c1cccc(Cl)c1")
6.85
>>> readout_number("Cc1nc(C(C)(C)NC(=O)c2ccc(C)c(-c3cccc(Cl)c3)n2)no1")
6.90
>>> readout_number("CC(C)CS(=O)(=O)c1nc(C(=O)N[C@@H](c2cccnc2)C(F)(F)F)ccc1C1CC1")
7.86

Exercise: Can you share its pEC50? I mean this compound: `NC(=O)[C@H](CC1CC1)NC(=O)c1ccc(N2CC(F)(F)C2)c(OCC2CC2)n1`
Solution: 8.15

Exercise: How about this compound: `CC(C)C[C@H](NC(=O)c1ccc(C2CC2)c(OCc2ccccn2)n1)C(N)=O`
Solution: 7.63

Exercise: Thanks! And `CC(C)(NC(=O)c1ccc(C2CC2)c(OCC(F)(F)F)n1)c1nccs1` ?
Solution: 7.30

Exercise: How about this compound: `Cc1ccc(C(=O)N[C@@H](CC2CC2)C(N)=O)nc1OCC1CC1`
Solution: 7.30

The reported numbers originate from patent US9290451B2.
